Origin of values: paper PMC9967275

target: TbrCatL (Trypanosoma brucei rhodesiense, UniProt Q95PM0); construct: Conor Caffrey (University of California San Diego); assay: TbrCatL enzymatic inhibition assay (cleavage of fluorogenic substrate Z-FR-AMC); format: biochemical; details: 10’ (pre-incubation time); sheet "Screening results";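 note: at 5 µM compound concentration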
Sequence (Q95PM0 entry or part of it): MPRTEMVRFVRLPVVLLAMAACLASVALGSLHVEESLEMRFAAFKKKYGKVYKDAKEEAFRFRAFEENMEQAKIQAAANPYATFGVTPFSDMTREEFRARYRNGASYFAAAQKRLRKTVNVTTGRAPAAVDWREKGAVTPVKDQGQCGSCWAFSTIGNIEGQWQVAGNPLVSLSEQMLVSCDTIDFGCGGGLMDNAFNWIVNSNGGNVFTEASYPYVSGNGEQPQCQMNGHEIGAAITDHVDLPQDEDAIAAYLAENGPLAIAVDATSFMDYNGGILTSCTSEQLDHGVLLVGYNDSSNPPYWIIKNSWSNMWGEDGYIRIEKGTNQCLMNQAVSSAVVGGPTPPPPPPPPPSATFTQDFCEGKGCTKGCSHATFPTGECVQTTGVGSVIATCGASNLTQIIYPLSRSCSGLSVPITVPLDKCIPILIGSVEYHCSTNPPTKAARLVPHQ
Attribute: TbrCatL 10’ Inhibition

compound: CC1=Nc2ccc(Cl)cc2C(c2ccccc2)N1CCNC(=O)CN(C)C (stereo not shown) [MMV688410]
targetSystem: TbrCatL (Trypanosoma brucei rhodesiense, UniProt Q95PM0)
TbrCatL 10’ Inhibition, %: -3.5
--
compound: CC(C)(C)c1ccc(N[C@@H]2CCCC[C@H]2NC(=O)c2ccco2)cc1 [MMV675969]
targetSystem: TbrCatL (Trypanosoma brucei rhodesiense, UniProt Q95PM0)
TbrCatL 10’ Inhibition, %: -6
--
compound: Nc1nc2cc(-c3cncc(Oc4ccc(F)cc4)c3)ccc2[nH]1 [MMV687248]
targetSystem: TbrCatL (Trypanosoma brucei rhodesiense, UniProt Q95PM0)
TbrCatL 10’ Inhibition, %: 17
--
compound: Cc1cc(NCCc2ccccc2)nc(NC(=N)Nc2ccc(Cl)cc2)n1 [MMV021660]
targetSystem: TbrCatL (Trypanosoma brucei rhodesiense, UniProt Q95PM0)
TbrCatL 10’ Inhibition, %: 7
--
compound: Clc1ccc(Cl)c(CO[C@H]2CCCC[C@@H]2n2ccnc2)c1 [MMV676048]
targetSystem: TbrCatL (Trypanosoma brucei rhodesiense, UniProt Q95PM0)
TbrCatL 10’ Inhibition, %: -3.8
--
compound: OCc1ccc(-c2cncc(Nc3cccc(Cl)c3)c2)cc1 [MMV026468]
targetSystem: TbrCatL (Trypanosoma brucei rhodesiense, UniProt Q95PM0)
TbrCatL 10’ Inhibition, %: 2.7
--
compound: CCOc1ccc(-c2nc(CNCCc3ccc(F)cc3)cs2)cc1 [MMV688938]
targetSystem: TbrCatL (Trypanosoma brucei rhodesiense, UniProt Q95PM0)
TbrCatL 10’ Inhibition, %: -3.6
--
compound: C[C@H](C(N)=O)N1CCCC[C@H]1c1ccc(OCc2cccc(F)c2)cc1 [MMV676269]
targetSystem: TbrCatL (Trypanosoma brucei rhodesiense, UniProt Q95PM0)
TbrCatL 10’ Inhibition, %: -4.7
--
compound: COc1ccc(Oc2ccc([C@@H](C)N(C)c3ncc4c(N)nc(N)nc4n3)cc2)cc1 [MMV690102]
targetSystem: TbrCatL (Trypanosoma brucei rhodesiense, UniProt Q95PM0)
TbrCatL 10’ Inhibition, %: 14
--
compound: CCOC(=O)c1c(NC(=O)c2c(F)c(F)c(F)c(F)c2F)sc(C(N)=O)c1C [MMV153413]
targetSystem: TbrCatL (Trypanosoma brucei rhodesiense, UniProt Q95PM0)
TbrCatL 10’ Inhibition, %: 39
--
compound: Nc1ncnc2n[nH]c(Cc3cccc4ccccc34)c12 [MMV688469]
targetSystem: TbrCatL (Trypanosoma brucei rhodesiense, UniProt Q95PM0)
TbrCatL 10’ Inhibition, %: -1.7
--
compound: Cc1nn(C)cc1C(C)Nc1nncc(-c2ccc(C(F)(F)F)cc2)n1 (stereo not shown) [MMV019993]
targetSystem: TbrCatL (Trypanosoma brucei rhodesiense, UniProt Q95PM0)
TbrCatL 10’ Inhibition, %: -3.6
--
compound: NCC(=O)N1CCn2c(nc(-c3ccccc3)c2Nc2ccc3c(c2)OCO3)C1 [MMV011691]
targetSystem: TbrCatL (Trypanosoma brucei rhodesiense, UniProt Q95PM0)
TbrCatL 10’ Inhibition, %: 1.3
--
compound: Cc1cc(C)nc(-n2nc(C)cc2Nc2ccccc2)n1 [MMV062221]
targetSystem: TbrCatL (Trypanosoma brucei rhodesiense, UniProt Q95PM0)
TbrCatL 10’ Inhibition, %: -72
--
compound: COc1ccc(CCN2CCC(NCc3cccc(N(C)C)c3)CC2)cc1 [MMV011511]
targetSystem: TbrCatL (Trypanosoma brucei rhodesiense, UniProt Q95PM0)
TbrCatL 10’ Inhibition, %: 9
--
compound: Cc1cc(NC(=O)c2ccc(Oc3ccc(Cl)cc3O)o2)no1 [MMV688955]
targetSystem: TbrCatL (Trypanosoma brucei rhodesiense, UniProt Q95PM0)
TbrCatL 10’ Inhibition, %: -12
--
compound: CCc1ccc(C(NCc2nc(N)nc(N(C)C)n2)C(C)C)cc1 (stereo not shown) [MMV1019989]
targetSystem: TbrCatL (Trypanosoma brucei rhodesiense, UniProt Q95PM0)
TbrCatL 10’ Inhibition, %: -5
--
compound: O=C1[C@@H](Oc2ccccc2)[C@@H](c2ccc(Cl)cc2)N1CCn1cnc2c(NCc3ccccc3)ncnc21 [MMV688352]
targetSystem: TbrCatL (Trypanosoma brucei rhodesiense, UniProt Q95PM0)
TbrCatL 10’ Inhibition, %: 12
--
compound: COc1cncc(-c2cncc(N3CCN(c4ccncc4)CC3)n2)c1 [MMV085071]
targetSystem: TbrCatL (Trypanosoma brucei rhodesiense, UniProt Q95PM0)
TbrCatL 10’ Inhibition, %: -10
